Biological target: T1, human parathyroid hormone receptor 1, wild-type (hPTHR-1) (human, UniProt Q03431 27-593)
T1 sequence (looked up): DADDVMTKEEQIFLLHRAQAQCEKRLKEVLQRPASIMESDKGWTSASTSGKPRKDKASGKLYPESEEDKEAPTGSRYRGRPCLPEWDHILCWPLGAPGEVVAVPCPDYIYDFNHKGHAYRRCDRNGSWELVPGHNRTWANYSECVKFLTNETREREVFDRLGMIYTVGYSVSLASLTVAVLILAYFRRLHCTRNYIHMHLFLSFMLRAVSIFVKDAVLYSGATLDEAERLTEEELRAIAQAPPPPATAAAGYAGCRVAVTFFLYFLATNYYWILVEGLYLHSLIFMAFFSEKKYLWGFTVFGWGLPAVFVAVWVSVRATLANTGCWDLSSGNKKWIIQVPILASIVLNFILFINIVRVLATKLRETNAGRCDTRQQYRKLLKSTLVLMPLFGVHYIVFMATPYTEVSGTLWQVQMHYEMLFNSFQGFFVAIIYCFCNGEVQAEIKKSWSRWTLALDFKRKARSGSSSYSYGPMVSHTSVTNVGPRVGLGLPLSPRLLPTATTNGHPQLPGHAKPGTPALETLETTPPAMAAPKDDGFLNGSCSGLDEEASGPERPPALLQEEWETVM
Assay: cell-based or functional assay
Non-standard residues stand in square brackets, D forms with d. No end group written: not given here. ACPC = 2-aminocyclopentane carboxylic acid
# label = Satisfied if Fold PTH >= 2 fold else Not satisfied

Reference set, count: 5
Given the entry SV[ACPC]EIQLMHNLGKHLNSMERVEWLRKKLQDVHNF-NH2 [ACPC(3) PTH(1-34)] , answer whether its Fold PTH meets or surpasses 2 fold.
Satisfied

hey, is Fold PTH for this one >= 2 fold? SVSE[ACPC]QLMHNLGKHLNSMERVEWLRKKLQDVHNF-NH2 [ACPC(5) PTH(1-34)]
Not satisfied

Could you please find out whether SVSEI[ACPC]LMHNLGKHLNSMERVEWLRKKLQDVHNF-NH2 [ACPC(6) PTH(1-34)] has Fold PTH that meets 2 fold or exceeds it?
Satisfied

In plain terms: is recorded Fold PTH at least 2 fold for SVSEIQ[ACPC]MHNLGKHLNSMERVEWLRKKLQDVHNF-NH2 [ACPC(7) PTH(1-34)] ?
Not satisfied

Tell me whether Fold PTH is at least 2 fold here: S[ACPC]SEIQLMHNLGKHLNSMERVEWLRKKLQDVHNF-NH2 [ACPC(2) PTH(1-34)]
Satisfied

Others:
Is Fold PTH for [ACPC]VSEIQLMHNLGKHLNSMERVEWLRKKLQDVHNF-NH2 [ACPC(1) PTH(1-34)] at or above 2 fold?
Not satisfied

Kindly determine if Fold PTH recorded for SVSEIQL[ACPC]HNLGKHLNSMERVEWLRKKLQDVHNF-NH2 [ACPC(8) PTH(1-34)] is above or exactly 2 fold.
Satisfied
